system: HCT-116 human colon carcinoma cells; test: MTS cytotoxicity assay (72 h exposure); format: cell-based; conditions: Homo sapiens, HCT-116, 72 h, read-out: Cytotoxicity Assay IC50 against HCT 116 Human colon tumor cell line
Here, each record is paired with measured IC50 data.
Remember to put the unit after the number in your answer.

For `CC(=O)CS[C@@H]1C[C@@]2(C)C(=O)[C@H](OC(C)=O)C3=C(C)[C@@H](OC(=O)[C@H](O)[C@@H](NC(=O)c4ccccc4)c4ccccc4)C[C@@](O)([C@@H](OC(=O)c4ccccc4)[C@@H]2[C@]2(OC(C)=O)CO[C@H]12)C3(C)C` , write its IC50.
1.2 nM

For `CC(=O)O[C@H]1C(=O)[C@]2(C)C[C@@H](SC(C)=O)[C@H]3OC[C@@]3(OC(C)=O)[C@H]2[C@H](OC(=O)c2ccccc2)[C@]2(O)C[C@H](OC(=O)[C@H](O)[C@@H](NC(=O)c3ccccc3)c3ccccc3)C(C)=C1C2(C)C` , write its IC50.
1.84 nM

For `CC(=O)O[C@H]1C(=O)[C@]2(C)C[C@@H](Sc3cccs3)[C@H]3OC[C@@]3(OC(C)=O)[C@H]2[C@H](OC(=O)c2ccccc2)[C@]2(O)C[C@H](OC(=O)[C@H](O)[C@@H](NC(=O)c3ccccc3)c3ccccc3)C(C)=C1C2(C)C` , write its IC50.
1.1 nM

For `CC(=O)O[C@H]1C(=O)[C@]2(C)C[C@@H](SCC(N)=O)[C@H]3OC[C@@]3(OC(C)=O)[C@H]2[C@H](OC(=O)c2ccccc2)[C@]2(O)C[C@H](OC(=O)[C@H](O)[C@@H](NC(=O)c3ccccc3)c3ccccc3)C(C)=C1C2(C)C` , write its IC50.
11 nM
